Origin of measurements: patent US20260167619A2

target: BaF3-Del_TM_CS cells (Homo sapiens, UniProt P00533, T790M/C797S, cells depend on it, form not given); assay: Cell antiproliferation assay (CellTiter-Glo), BaF3-Del_TM_CS; assay type: cell-based; details: 48 h treatment, read-out: BaF3-Del_TM_CS IC50
Sequence (P00533 with tags, fused parts or gaps DEL746-750/T790M/C797S, form open): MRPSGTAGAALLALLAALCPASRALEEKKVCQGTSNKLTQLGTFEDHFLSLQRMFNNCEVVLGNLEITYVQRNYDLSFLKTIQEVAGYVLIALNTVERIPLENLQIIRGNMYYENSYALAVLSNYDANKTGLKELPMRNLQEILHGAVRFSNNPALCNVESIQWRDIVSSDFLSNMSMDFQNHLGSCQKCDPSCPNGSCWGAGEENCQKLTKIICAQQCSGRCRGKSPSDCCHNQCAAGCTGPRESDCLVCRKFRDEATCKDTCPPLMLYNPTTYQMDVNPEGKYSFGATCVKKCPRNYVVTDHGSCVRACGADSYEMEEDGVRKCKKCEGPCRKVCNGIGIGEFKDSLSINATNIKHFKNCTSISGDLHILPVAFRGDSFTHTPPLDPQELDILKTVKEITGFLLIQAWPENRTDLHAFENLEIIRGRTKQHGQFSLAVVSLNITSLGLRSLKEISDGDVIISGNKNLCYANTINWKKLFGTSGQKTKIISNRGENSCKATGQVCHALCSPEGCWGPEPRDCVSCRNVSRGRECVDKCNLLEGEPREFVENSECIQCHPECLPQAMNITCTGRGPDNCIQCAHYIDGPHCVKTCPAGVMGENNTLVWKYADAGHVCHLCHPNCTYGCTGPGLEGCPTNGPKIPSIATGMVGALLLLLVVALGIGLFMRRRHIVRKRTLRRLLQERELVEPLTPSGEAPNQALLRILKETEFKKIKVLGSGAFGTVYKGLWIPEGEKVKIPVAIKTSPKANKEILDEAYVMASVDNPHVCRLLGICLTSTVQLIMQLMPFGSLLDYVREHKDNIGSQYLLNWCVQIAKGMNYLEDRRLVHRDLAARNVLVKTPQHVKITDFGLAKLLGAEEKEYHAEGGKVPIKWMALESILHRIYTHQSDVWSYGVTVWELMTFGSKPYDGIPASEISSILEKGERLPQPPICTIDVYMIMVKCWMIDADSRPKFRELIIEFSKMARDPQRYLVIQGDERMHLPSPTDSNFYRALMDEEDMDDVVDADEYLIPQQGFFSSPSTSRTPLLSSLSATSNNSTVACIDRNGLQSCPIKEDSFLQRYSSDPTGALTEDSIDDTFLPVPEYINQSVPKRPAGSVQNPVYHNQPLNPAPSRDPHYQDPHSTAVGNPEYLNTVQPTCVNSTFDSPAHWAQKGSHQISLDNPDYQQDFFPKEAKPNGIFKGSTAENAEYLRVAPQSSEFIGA

| molecule | GI50 / nM |
| --- | --- |
| COc1cc(N2CCCN(C)CC2)c(C)cc1Nc1nc(Nc2cccc3c2N(S(C)(=O)=O)CC3)c2cc[nH]c2n1 [Example 101] | 58.9 |
| COc1cc(N2CCC(N3CCN(C)CC3)CC2)ccc1Nc1nc(Nc2cccc3c2N(S(C)(=O)=O)CC3)c2[nH]ccc2n1 [Example 71] | 920 |
| CN1CCN(C2CCN(c3ccc(Nc4ncc(Cl)c(Nc5cccc6c5N(S(C)(=O)=O)CC6)n4)c4c3CCO4)CC2)CC1 [Example 49] | 19.3 |
| Cc1cc(Nc2nc(Nc3cccc4c3N(S(C)(=O)=O)CC4)c3cc[nH]c3n2)c(OC(C)C)cc1N1CCC(N2CCN(C)CC2)CC1 [Example 92] | 225 |
| COc1cc(N2CCC(N3CCN(C)CC3)CC2)ccc1Nc1nc(Nc2cccc3c2N(S(C)(=O)=O)CC3)c2nc[nH]c2n1 [Example 72] | 246 |
| COc1cc(N2CCC(N3CCN(C)CC3)CC2)c(C)cc1Nc1nc(Nc2cccc3c2N(S(C)(=O)=O)CC3)c2cc[nH]c2n1 [Example 91] | 12.8 |

* * *

target: BaF3-LR_TM_CS cells (Homo sapiens, UniProt P00533, T790M/C797S/L858R, cells depend on it); assay: Cell antiproliferation assay (CellTiter-Glo), BaF3-LR_TM_CS; assay type: cell-based; details: 48 h treatment, read-out: BaF3-LR_TM_CS IC50
Sequence (P00533 whole entry T790M/C797S/L858R): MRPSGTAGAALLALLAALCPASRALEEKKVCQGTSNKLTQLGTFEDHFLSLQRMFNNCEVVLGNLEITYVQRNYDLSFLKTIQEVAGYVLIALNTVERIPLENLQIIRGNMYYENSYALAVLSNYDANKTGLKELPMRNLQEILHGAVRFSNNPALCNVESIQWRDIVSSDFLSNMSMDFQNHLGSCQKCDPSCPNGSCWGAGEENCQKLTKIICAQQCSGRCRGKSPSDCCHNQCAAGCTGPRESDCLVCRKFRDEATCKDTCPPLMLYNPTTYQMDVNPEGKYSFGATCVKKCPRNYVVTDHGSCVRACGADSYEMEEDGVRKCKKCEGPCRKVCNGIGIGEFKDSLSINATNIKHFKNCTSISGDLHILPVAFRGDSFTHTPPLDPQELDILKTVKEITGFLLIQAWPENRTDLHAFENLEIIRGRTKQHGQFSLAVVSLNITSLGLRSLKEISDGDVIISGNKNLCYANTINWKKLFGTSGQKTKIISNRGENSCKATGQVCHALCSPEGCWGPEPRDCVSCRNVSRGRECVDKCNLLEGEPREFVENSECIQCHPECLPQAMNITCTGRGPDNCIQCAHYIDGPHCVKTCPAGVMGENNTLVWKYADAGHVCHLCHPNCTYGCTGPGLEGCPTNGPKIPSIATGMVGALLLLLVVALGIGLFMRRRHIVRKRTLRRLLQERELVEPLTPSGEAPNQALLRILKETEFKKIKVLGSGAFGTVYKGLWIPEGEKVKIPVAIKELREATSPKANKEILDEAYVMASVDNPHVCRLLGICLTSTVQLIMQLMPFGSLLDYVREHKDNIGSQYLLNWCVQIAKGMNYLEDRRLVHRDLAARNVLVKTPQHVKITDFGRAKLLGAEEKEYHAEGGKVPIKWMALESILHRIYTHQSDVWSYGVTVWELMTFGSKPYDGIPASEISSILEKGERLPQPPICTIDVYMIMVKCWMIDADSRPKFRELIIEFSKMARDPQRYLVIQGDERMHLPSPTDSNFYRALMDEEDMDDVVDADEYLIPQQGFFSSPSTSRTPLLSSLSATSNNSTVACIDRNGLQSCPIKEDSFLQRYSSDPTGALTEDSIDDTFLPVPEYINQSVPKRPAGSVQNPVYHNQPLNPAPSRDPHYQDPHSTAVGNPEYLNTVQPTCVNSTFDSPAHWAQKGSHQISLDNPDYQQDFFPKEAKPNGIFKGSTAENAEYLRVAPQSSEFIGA
GI50 values by entry

| compound_structure | measure_unit | GI50 |
| --- | --- | --- |
| COc1cc(N2CCC(N3CCN(C)CC3)CC2)ccc1Nc1nc(Nc2cccc3c2N(S(C)(=O)=O)CC3)c2cc[nH]c2n1 | nM | 191 |
| COc1cc(N2CCC(N(C)C)CC2)ccc1Nc1ncc(Cl)c(Nc2cccc3c2N(S(C)(=O)=O)CC3)n1 | nM | 25.9 |
| COc1cc(N2CCC(N3CCN(C)CC3)CC2)c(C)cc1Nc1nc(Nc2cccc3c2N(S(C)(=O)=O)CC3)c2cc[nH]c2n1 | nM | 40.5 |
| COc1cc(N2CCC(N(C)C)CC2)c(C)cc1Nc1nc(Nc2cccc3c2N(S(C)(=O)=O)CC3)c2cc[nH]c2n1 | nM | 76.7 |
| CN(C)C1CCN(c2ccc(Nc3ncc(Br)c(Nc4cccc5c4N(S(C)(=O)=O)CC5)n3)c3c2CCO3)CC1 | nM | 30.5 |
| COc1cc(N2C[C@@H](C)N(C)[C@@H](C)C2)c(C)cc1Nc1nc(Nc2cccc3c2N(S(C)(=O)=O)CC3)c2cc[nH]c2n1 | nM | 93.8 |
| COc1cc(N2CCC(N3CCN(C)CC3)CC2)ccc1Nc1ncc(Cl)c(Nc2cccc3c2N(S(=O)(=O)CC2CC(F)(F)C2)CC3)n1 | nM | 377 |

* * *

target: EGFR (aa668-1210, Invitrogen) (Homo sapiens)
Sequence (P00533 668-1210): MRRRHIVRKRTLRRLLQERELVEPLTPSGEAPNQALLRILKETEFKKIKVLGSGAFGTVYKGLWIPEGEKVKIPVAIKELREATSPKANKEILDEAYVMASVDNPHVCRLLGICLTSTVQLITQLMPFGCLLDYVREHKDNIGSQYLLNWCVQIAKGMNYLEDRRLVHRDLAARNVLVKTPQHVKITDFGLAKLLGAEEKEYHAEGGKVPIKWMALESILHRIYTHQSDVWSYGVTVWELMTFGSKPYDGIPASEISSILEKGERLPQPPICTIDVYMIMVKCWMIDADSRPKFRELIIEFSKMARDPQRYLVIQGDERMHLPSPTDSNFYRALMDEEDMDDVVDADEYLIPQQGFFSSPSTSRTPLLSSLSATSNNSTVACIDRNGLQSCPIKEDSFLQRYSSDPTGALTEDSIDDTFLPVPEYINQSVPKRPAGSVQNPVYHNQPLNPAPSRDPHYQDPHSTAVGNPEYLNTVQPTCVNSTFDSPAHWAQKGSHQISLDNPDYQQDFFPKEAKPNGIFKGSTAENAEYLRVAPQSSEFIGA
The threshold is 100 nM. Values of IC50 beneath it are tagged label 1; values meeting or exceeding it are tagged label 0.

| compound | discrete_label |
| --- | --- |
| COc1cc(N2CCC(N3CCN(C)CC3)CC2)ncc1Nc1nc(Nc2cccc3c2N(S(C)(=O)=O)CC3)c2cc[nH]c2n1 | label 0 |
| COc1cc(N2CCC(N3CCN(C)CC3)CC2)ccc1Nc1nc2c(c(Nc3cccc4c3N(S(C)(=O)=O)CC4)n1)CCC2 | label 0 |
| CC1Cc2c(N3CCC(N(C)C)CC3)ccc(Nc3ncc(Br)c(Nc4cccc5c4N(S(C)(=O)=O)CC5)n3)c2O1 (stereo not shown) | label 1 |
| CCOc1cc(N2CCC(N3CCN(C)CC3)CC2)c(C)cc1Nc1nc(Nc2cccc3c2N(S(C)(=O)=O)CC3)c2cc[nH]c2n1 | label 0 |
| CN(C)C1CCN(c2ccc(Nc3ncc(Cl)c(Nc4cccc5c4N(S(C)(=O)=O)CC5)n3)c3c2CCO3)CC1 | label 1 |
| CN1CCN(c2c(F)cc(Nc3ncc(Br)c(Nc4cccc5c4N(S(C)(=O)=O)CC5)n3)c3c2CCO3)CC1 | label 1 |
